# Experimental system: D(2) dopamine receptor (Rattus norvegicus, UniProt P61169)
# Sequence (P61169 whole entry): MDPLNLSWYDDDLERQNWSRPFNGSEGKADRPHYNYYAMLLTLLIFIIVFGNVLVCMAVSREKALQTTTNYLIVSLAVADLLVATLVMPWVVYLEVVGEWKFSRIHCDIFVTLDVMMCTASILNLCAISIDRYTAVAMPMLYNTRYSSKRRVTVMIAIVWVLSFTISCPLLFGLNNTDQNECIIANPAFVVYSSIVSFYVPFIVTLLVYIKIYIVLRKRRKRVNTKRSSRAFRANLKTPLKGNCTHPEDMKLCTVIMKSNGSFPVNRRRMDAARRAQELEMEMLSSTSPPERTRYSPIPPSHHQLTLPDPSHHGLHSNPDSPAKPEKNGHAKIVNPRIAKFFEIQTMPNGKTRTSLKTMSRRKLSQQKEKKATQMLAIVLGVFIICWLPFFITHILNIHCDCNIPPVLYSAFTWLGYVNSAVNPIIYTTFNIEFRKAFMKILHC
# Protocol notes: Binding affinity against Dopamine receptor D2 in rat striatal membranes using [3H]spiperone
pKi: −log10 of the molar value.
Reported metric: pKi

# annotated cases, reported pKi shown
Oc1ccc(C[C@H]2CCCN2CCCCCCN2CCC[C@H]2Cc2ccc(O)c(O)c2)cc1O :: 8.05
CCCCN1CCCC1Cc1ccc(O)c(O)c1 (stereo unspecified) :: 8.50

I. CCCN(CCCCCCN1CCC[C@@H]1Cc1ccc(O)c(O)c1)CCc1ccc(O)c(O)c1
II. Oc1ccc(C[C@H]2CCCN2CCCCCCN2CCC[C@@H]2Cc2ccc(O)c(O)c2)cc1O
III. Oc1ccc(C[C@@H]2CCCN2CCCCCCN2CCC[C@H]2Cc2ccc(O)c(O)c2)cc1O
Challenge: Arrange by pKi, high to low. Reply format: the labels, ordered as requested.
Response given: I, II, III

----------
# Experimental system: Adrenergic receptor alpha-1 (Homo sapiens, UniProt P35348+P25100+P35368)
# Sequence (P35348 whole entry): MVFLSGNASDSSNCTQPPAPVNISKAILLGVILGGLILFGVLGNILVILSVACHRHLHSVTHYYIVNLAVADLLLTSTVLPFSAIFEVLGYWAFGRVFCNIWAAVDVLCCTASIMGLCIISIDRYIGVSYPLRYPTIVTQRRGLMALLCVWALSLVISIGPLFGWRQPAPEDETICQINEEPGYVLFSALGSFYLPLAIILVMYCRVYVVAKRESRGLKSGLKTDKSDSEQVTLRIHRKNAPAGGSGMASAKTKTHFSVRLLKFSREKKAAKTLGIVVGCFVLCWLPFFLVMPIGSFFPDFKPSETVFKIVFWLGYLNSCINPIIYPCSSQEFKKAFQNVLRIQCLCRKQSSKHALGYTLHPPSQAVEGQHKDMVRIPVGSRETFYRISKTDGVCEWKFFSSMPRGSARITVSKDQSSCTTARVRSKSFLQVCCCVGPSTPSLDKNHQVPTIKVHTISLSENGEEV
# Sequence (P25100 whole entry): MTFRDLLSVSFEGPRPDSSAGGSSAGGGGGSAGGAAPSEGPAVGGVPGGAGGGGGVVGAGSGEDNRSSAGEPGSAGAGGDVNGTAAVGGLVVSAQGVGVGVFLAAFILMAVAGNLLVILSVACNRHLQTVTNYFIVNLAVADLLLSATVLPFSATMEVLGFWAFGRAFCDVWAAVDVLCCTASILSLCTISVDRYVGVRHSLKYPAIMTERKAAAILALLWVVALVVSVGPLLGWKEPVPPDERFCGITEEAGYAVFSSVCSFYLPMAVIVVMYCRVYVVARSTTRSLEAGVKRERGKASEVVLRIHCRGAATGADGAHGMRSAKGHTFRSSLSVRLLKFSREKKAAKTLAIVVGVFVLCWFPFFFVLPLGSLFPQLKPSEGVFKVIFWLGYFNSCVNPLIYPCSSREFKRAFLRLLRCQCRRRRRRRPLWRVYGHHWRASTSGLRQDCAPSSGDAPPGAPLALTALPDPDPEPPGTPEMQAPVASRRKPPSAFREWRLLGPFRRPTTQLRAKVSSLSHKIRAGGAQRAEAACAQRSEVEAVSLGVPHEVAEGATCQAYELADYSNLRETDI
# Sequence (P35368 whole entry): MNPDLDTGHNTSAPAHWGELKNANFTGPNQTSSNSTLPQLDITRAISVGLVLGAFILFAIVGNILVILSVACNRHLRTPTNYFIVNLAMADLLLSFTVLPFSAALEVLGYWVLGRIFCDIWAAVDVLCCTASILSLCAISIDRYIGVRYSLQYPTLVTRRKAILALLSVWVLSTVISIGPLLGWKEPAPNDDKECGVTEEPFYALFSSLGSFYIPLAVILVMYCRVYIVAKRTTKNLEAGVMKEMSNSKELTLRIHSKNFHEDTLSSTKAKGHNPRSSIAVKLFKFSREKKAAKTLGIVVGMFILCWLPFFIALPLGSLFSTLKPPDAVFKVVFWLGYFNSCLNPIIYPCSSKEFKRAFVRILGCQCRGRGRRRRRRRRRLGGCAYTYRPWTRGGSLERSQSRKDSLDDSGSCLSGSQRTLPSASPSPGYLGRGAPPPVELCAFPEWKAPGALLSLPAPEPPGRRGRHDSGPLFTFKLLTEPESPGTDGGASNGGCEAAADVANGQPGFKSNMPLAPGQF
# Protocol notes: Compound was tested for its binding affinity against Alpha-1 adrenergic receptor
# Format: protein assay
Reported metric: Log Ki

CCCN(CCCCCCN1CCC[C@@H]1Cc1ccc(O)c(O)c1)CCc1ccc(O)c(O)c1 :: -6.41
Oc1ccc(C[C@H]2CCCN2CCCCCCN2CCC[C@H]2Cc2ccc(O)c(O)c2)cc1O :: -6.24
Oc1ccc(C[C@H]2CCCN2CCCCCCN2CCC[C@@H]2Cc2ccc(O)c(O)c2)cc1O :: -7.25
Oc1ccc(C[C@@H]2CCCN2CCCCCCN2CCC[C@H]2Cc2ccc(O)c(O)c2)cc1O :: -6.41
CCCN(CCC)CCc1ccc(O)c(O)c1 :: -5.7

----------
# Experimental system: D(1A) dopamine receptor (Rattus norvegicus, UniProt P18901)
# Sequence (P18901 whole entry): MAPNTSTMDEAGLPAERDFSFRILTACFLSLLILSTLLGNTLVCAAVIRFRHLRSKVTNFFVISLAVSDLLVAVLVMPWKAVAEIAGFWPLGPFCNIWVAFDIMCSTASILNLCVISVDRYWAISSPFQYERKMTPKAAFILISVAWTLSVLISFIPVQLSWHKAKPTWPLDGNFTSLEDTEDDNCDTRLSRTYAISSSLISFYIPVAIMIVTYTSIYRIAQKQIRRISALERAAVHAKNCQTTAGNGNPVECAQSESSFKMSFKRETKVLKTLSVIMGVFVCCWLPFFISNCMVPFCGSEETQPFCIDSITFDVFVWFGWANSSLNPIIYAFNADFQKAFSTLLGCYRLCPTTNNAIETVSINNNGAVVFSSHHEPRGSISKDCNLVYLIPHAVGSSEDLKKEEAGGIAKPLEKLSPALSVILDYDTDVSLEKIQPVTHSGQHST
# Protocol notes: Binding affinity against Dopamine receptor D1 in rat striatal membranes using [3H]SCH-23390
pKi: −log10 of the molar value.
Reported metric: pKi

# annotated cases, reported pKi shown
Oc1ccc(C[C@@H]2CCCN2CCCCCCN2CCC[C@H]2Cc2ccc(O)c(O)c2)cc1O :: 6.21
CCCCN1CCCC1Cc1ccc(O)c(O)c1 (stereo unspecified) :: 8.10
CCCN(CCC)CCc1ccc(O)c(O)c1 :: 5.33

1. Oc1ccc(C[C@H]2CCCN2CCCCCCN2CCC[C@@H]2Cc2ccc(O)c(O)c2)cc1O
2. Oc1ccc(C[C@H]2CCCN2CCCCCCN2CCC[C@H]2Cc2ccc(O)c(O)c2)cc1O
3. CCCN(CCCCCCN1CCC[C@@H]1Cc1ccc(O)c(O)c1)CCc1ccc(O)c(O)c1
Challenge: Hey, quick one: sort these by pKi, low to high? Reply format: the labels, ordered as requested.
Response given: 2, 3, 1
